Measured Target: Human recombinant MMP-1 (Homo sapiens, UniProt P03956)
Construct: made in house; host or cells: MMP-1-transfected HT-1080 cells (spent media)
Sequence (P03956 100-469): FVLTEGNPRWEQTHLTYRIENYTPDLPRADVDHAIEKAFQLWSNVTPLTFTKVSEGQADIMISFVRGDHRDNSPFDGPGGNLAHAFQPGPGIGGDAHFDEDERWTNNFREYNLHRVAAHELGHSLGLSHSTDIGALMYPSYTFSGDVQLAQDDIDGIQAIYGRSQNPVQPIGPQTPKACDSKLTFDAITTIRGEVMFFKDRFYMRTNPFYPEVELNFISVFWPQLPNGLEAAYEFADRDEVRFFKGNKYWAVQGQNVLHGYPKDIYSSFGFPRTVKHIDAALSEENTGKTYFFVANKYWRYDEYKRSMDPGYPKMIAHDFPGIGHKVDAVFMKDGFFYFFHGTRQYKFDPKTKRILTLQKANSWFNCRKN
Protocol Summary: In vitro MMP inhibition, IC50 determination (fluorogenic substrate I)
Assay type: biochemical
Particulars: value outside parentheses (Ki in parenthesis)
pIC50: −log10 of the molar value.
Recorded Metric: pIC50

Req: Dear colleague, I am looking for the recorded pIC50 of the following molecule: CN(C)c1ccc(C(=O)NCCCOc2ccc(S(=O)(=O)C3(C(=O)NO)CCN(C4CC4)CC3)cc2)cc1
Resp: < 5.00

Req: Dear colleague, I am looking for the recorded pIC50 of the following molecule: CC(CCc1ccccc1)Oc1ccc(S(=O)(=O)C2(C(=O)NO)CCOCC2)cc1 (stereo not shown)
Resp: < 5.00

Req: Dear colleague, I am looking for the recorded pIC50 of the following molecule: CCCCCc1ccc(-c2nnc(CCCOc3ccc(S(=O)(=O)C4(C(=O)NO)CCOCC4)cc3)o2)cc1
Resp: 5.57

Req: Dear colleague, I am looking for the recorded pIC50 of the following molecule: CN(C)c1ccc(NC(=O)CCCOc2ccc(S(=O)(=O)C3(C(=O)NO)CCOCC3)cc2)cc1
Resp: < 5.00

Req: Dear colleague, I am looking for the recorded pIC50 of the following molecule: COc1ccc(C(=O)N2CCC(COc3ccc(S(=O)(=O)C4(C(=O)NO)CCOCC4)cc3)CC2)cc1
Resp: < 5.00

Req: Dear colleague, I am looking for the recorded pIC50 of the following molecule: CC(C)=CCCC(C)CCOc1ccc(S(=O)(=O)C2(C(=O)NO)CCOCC2)cc1 (stereo not shown)
Resp: < 5.00

Req: Dear colleague, I am looking for the recorded pIC50 of the following molecule: CCCC(CCOc1ccc(S(=O)(=O)C2(C(=O)NO)CCOCC2)cc1)S(C)(=O)=O (stereo not shown)
Resp: < 5.00

Req: Dear colleague, I am looking for the recorded pIC50 of the following molecule: CN(C)c1ccc(C(=O)NCCCOc2ccc(S(=O)(=O)C3(C(=O)NO)CCOCC3)cc2)cc1
Resp: 5.22

Req: Dear colleague, I am looking for the recorded pIC50 of the following molecule: O=C(NO)C1(S(=O)(=O)c2ccc(OCCC3CCCCC3)cc2)CCOCC1
Resp: < 5.00

Req: Dear colleague, I am looking for the recorded pIC50 of the following molecule: CC(C)(C)c1ccc(C(=O)CCCCOc2ccc(S(=O)(=O)C3(C(=O)NO)CCOCC3)cc2)cc1
Resp: < 5.00

Req: Dear colleague, I am looking for the recorded pIC50 of the following molecule: O=C(CCCCOc1ccc(S(=O)(=O)C2(C(=O)NO)CCOCC2)cc1)c1cccc2ccccc12
Resp: < 5.00

Req: Dear colleague, I am looking for the recorded pIC50 of the following molecule: COc1cccc(SCC(C)(C)COc2ccc(S(=O)(=O)C3(C(=O)NO)CCOCC3)cc2)c1
Resp: < 5.00

Req: Dear colleague, I am looking for the recorded pIC50 of the following molecule: O=C(NO)C1(S(=O)(=O)c2ccc(OCCCCN3CCc4ccccc4C3)cc2)CCOCC1
Resp: < 5.00

Req: Dear colleague, I am looking for the recorded pIC50 of the following molecule: O=C(NCCCOc1ccc(S(=O)(=O)C2(C(=O)NO)CCOCC2)cc1)c1cccnc1
Resp: 5.36

Req: Dear colleague, I am looking for the recorded pIC50 of the following molecule: O=C(CCCOc1ccc(S(=O)(=O)C2(C(=O)NO)CCOCC2)cc1)c1cccc2ccccc12
Resp: < 5.00

Req: Dear colleague, I am looking for the recorded pIC50 of the following molecule: Cc1ccc2c(c1)CCCN2CCCCCOc1ccc(S(=O)(=O)C2(C(=O)NO)CCOCC2)cc1
Resp: < 5.00

Req: Dear colleague, I am looking for the recorded pIC50 of the following molecule: COC(C)CCOc1ccc(S(=O)(=O)C2(C(=O)NO)CCOCC2)cc1 (stereo not shown)
Resp: < 5.00

Req: Dear colleague, I am looking for the recorded pIC50 of the following molecule: COc1ccc(C(=O)NCC(C)(C)COc2ccc(S(=O)(=O)C3(C(=O)NO)CCOCC3)cc2)cc1
Resp: < 5.00

Req: Dear colleague, I am looking for the recorded pIC50 of the following molecule: O=C(NO)C1(S(=O)(=O)c2ccc(OCCCS(=O)(=O)C3CCCCC3)cc2)CCOCC1
Resp: 5.21

Req: Dear colleague, I am looking for the recorded pIC50 of the following molecule: Cc1ccc(C(=O)NCCCOc2ccc(S(=O)(=O)C3(C(=O)NO)CCOCC3)cc2)cc1C
Resp: < 5.00

Req: Dear colleague, I am looking for the recorded pIC50 of the following molecule: O=C(NO)C1(S(=O)(=O)c2ccc(OCCCCS(=O)(=O)C3CCCCC3)cc2)CCOCC1
Resp: < 5.00

Req: Dear colleague, I am looking for the recorded pIC50 of the following molecule: COC(C)(C)CCOc1ccc(S(=O)(=O)C2(C(=O)NO)CCOCC2)cc1
Resp: < 5.00

Req: Dear colleague, I am looking for the recorded pIC50 of the following molecule: CN(CCc1ccccc1)S(=O)(=O)CCCOc1ccc(S(=O)(=O)C2(C(=O)NO)CCOCC2)cc1
Resp: 6.01

Req: Dear colleague, I am looking for the recorded pIC50 of the following molecule: CC(C)OCCCNc1ccc(S(=O)(=O)C2(C(=O)NO)CCOCC2)cc1
Resp: < 5.00

Req: Dear colleague, I am looking for the recorded pIC50 of the following molecule: CC(CCOc1ccc(S(=O)(=O)C2(C(=O)NO)CCOCC2)cc1)CC(C)(C)C (stereo not shown)
Resp: < 5.00

Req: Dear colleague, I am looking for the recorded pIC50 of the following molecule: CC(C)(COc1ccc(S(=O)(=O)C2(C(=O)NO)CCOCC2)cc1)CSc1ccc(OC(F)(F)F)cc1
Resp: < 5.00

Req: Dear colleague, I am looking for the recorded pIC50 of the following molecule: Cc1cc(-c2nnc(CCCOc3ccc(S(=O)(=O)C4(C(=O)NO)CCOCC4)cc3)o2)ccc1OC(C)C
Resp: 5.34

Req: Dear colleague, I am looking for the recorded pIC50 of the following molecule: CC(C)(COc1ccc(S(=O)(=O)C2(C(=O)NO)CCOCC2)cc1)CS(=O)(=O)Cc1ccccc1
Resp: < 5.00

Req: Dear colleague, I am looking for the recorded pIC50 of the following molecule: COc1cc2c(cc1OC)C(C)N(C(=O)OCCCCOc1ccc(S(=O)(=O)C3(C(=O)NO)CCOCC3)cc1)CC2 (stereo not shown)
Resp: < 5.00

Req: Dear colleague, I am looking for the recorded pIC50 of the following molecule: COC(=O)c1ccc(C(=O)NCCCOc2ccc(S(=O)(=O)C3(C(=O)NO)CCOCC3)cc2)cc1
Resp: < 5.00

Req: Dear colleague, I am looking for the recorded pIC50 of the following molecule: O=C(NO)C1(S(=O)(=O)c2ccc(OCCCOc3ccc4ccccc4c3)cc2)CCOCC1
Resp: 5.51
